Assay: Cytotoxicity against human HCT116 cells after 72 hrs by alamar blue assay
Type: functional, cell-based
Conditions: HCT-116, 72 h
MEASURED_ENDPOINT: IC50 (µM)
Field format: number, assumed µM, no unit text.

Exam item: Find the recorded IC50 belonging to S=C(NCc1cccnc1)SCCc1nnc(-c2ccccc2)o1 and report it.
Marked response: 8.21

* * *

Test: Cytotoxicity against human LO2 cells after 72 hrs by alamar blue assay
Type: cell-based
Settings: L02, 72 h
MEASURED_ENDPOINT: pIC50
Reminder that pIC50 means the negative base-10 logarithm of the concentration expressed in mol/L.

Exam item: I would be grateful if you could share the reported pIC50 for S=C(NCc1cccnc1)SCCc1nnc(-c2ccccc2)o1 .
Marked response: 5.01

* * *

Test: Cytotoxicity against human HL60 cells after 72 hrs by alamar blue assay
Assay type: functional, cell-based
Settings: HL-60, 72 h
Assignment: determine reported pIC50 for the given molecules.
Notebook: values listed as pIC50 are -log10 of the concentration (mol/L).

Exam item: I'd like to know its pIC50. The molecule in question is N#CCCSC(=S)NCc1cnc(N2CCOCC2)nc1
Marked response: 5.30

Exam item: Another molecule: Cc1nc(-c2ccccc2)oc1CNC(=S)SCCC#N
Marked response: 5.10

Exam item: What do we get for N#CCCSC(=S)NCc1cncs1 ?
Marked response: 3.96

Exam item: What do we get for CN1CCOc2cc(CNC(=S)SCCC#N)cnc21 ?
Marked response: 4.08

Exam item: Consider next the molecule N#CCCSC(=S)NCc1nnc(-c2ccccc2)s1 in the same way.
Marked response: 4.93

Exam item: What about N#CCCSC(=S)NCc1nnc(-c2ccccc2)o1 ?
Marked response: 4.85
